Molecular target: T1, IL-18 receptors on HEK-Blue IL-18 reporter cells (UniProt Q13478 19-541; O95256 20-599, limits assumed); note: unit not given here
T1 sequence (looked up) 1: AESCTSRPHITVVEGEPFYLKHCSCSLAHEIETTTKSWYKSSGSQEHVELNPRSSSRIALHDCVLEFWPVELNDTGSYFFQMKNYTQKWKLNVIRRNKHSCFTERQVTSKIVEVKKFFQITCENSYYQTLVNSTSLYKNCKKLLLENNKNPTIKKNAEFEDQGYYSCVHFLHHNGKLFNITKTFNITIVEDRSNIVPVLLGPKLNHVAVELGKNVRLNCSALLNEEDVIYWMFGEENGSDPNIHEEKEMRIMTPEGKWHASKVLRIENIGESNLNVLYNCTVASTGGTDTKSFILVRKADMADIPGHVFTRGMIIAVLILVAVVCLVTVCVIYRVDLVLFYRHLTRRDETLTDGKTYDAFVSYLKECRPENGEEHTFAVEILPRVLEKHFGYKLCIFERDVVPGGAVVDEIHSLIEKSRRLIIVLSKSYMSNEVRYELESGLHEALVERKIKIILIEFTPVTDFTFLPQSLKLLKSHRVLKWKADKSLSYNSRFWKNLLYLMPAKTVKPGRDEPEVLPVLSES
T1 sequence (looked up) 2: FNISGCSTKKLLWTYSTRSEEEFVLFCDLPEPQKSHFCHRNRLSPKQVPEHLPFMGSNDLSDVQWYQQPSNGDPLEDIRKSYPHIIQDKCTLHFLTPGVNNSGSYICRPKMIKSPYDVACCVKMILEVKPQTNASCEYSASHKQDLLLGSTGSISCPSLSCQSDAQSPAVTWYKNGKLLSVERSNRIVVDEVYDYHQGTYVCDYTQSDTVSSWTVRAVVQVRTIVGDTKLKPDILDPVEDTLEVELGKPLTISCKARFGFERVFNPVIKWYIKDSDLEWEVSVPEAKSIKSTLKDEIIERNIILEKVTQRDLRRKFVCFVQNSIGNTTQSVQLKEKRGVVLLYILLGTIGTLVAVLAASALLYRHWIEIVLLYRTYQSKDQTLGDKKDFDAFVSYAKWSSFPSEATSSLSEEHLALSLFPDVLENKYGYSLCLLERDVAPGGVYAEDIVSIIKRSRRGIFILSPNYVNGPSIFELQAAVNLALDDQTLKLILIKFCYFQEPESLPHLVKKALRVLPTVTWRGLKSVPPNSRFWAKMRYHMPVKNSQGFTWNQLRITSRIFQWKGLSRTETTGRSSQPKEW
Assay: cell-based or functional assay

BINDER	HEK-Blue activity, No BP, DF-10000
IL-18 variant K53H, S55I (ligand) YFGKLESKLSVIRNLNDQVLFIDQGNRPLFEDMTDSDMRDNAPRTIFIISMYHDIQPRGMAVTISVKSEKISTLSSENKIISFKEMNPPDNIKDTKSDIIFFQRSVPGHDNKMQFESSSYEGYFLASEKERDLFKLILKKEDELGDRSIMFTVQNED	0.14
IL-18 variant K53H, S55Y (ligand) YFGKLESKLSVIRNLNDQVLFIDQGNRPLFEDMTDSDMRDNAPRTIFIISMYHDYQPRGMAVTISVKSEKISTLSSENKIISFKEMNPPDNIKDTKSDIIFFQRSVPGHDNKMQFESSSYEGYFLASEKERDLFKLILKKEDELGDRSIMFTVQNED	0.09
